# subject.of.test: HLA-A*29:02
# test: IEDB peptide-MHC binding, purified MHC/competitive/fluorescence; filed as Kd, often an IC50 or EC50 that approximates it; bounds were set here for any values at or beyond the usual limits of such assays
# test.parameters: source organism: Shigella flexneri 5 str. 8401
readout.label: pKd
Conceptually, pKd converts a concentration in mol/L into minus its log10.

Looking up `FGALFMWLL` , I see its pKd listed as 6.86

* * *

# subject.of.test: HLA-A*02:01
# test: IEDB peptide-MHC binding, purified MHC/competitive/fluorescence; filed as Kd, often an IC50 or EC50 that approximates it; bounds were set here for any values at or beyond the usual limits of such assays
# test.parameters: source organism: Escherichia coli O139:H28 str. E24377A
readout.label: Kd

Record `ITAALAWSL` ; system HLA-A*02:01; Kd = 0.0725 µM

* * *

# subject.of.test: HLA-A*02:03
# test: IEDB peptide-MHC binding, purified MHC/competitive/radioactivity; filed as Kd, often an IC50 or EC50 that approximates it; bounds were set here for any values at or beyond the usual limits of such assays
# test.parameters: source organism: Lassa virus GA391
readout.label: pKd
Conceptually, pKd converts a concentration in mol/L into minus its log10.

Looking up `ILAADLEKL` , I see its pKd listed as 7.70

* * *

# subject.of.test: HLA-B*45:06
# test: IEDB peptide-MHC binding, purified MHC/competitive/fluorescence; filed as Kd, often an IC50 or EC50 that approximates it; bounds were set here for any values at or beyond the usual limits of such assays
# test.parameters: source organism: Escherichia coli K-12
pKd: −log10 of the molar value.
readout.label: pKd

Looking up `RQWGMGFLL` , I see its pKd listed as ≤ 5.30

* * *

# subject.of.test: HLA-A*69:01
# test: IEDB peptide-MHC binding, purified MHC/competitive/fluorescence; filed as Kd, often an IC50 or EC50 that approximates it; bounds were set here for any values at or beyond the usual limits of such assays
# test.parameters: source organism: Orthohantavirus sinnombreense
readout.label: Kd

Looking up `RTLGVFRYK` , I see its Kd listed as ≥ 20 µM

* * *

# subject.of.test: HLA-A*80:01
# test: IEDB peptide-MHC binding, purified MHC/direct/fluorescence; filed as Kd, often an IC50 or EC50 that approximates it; bounds were set here for any values at or beyond the usual limits of such assays
# test.parameters: source organism: Yellow fever virus
readout.label: Kd

Looking up `EVDQTKIQY` , I see its Kd listed as ≥ 20 µM

* * *

# subject.of.test: HLA-A*24:03
# test: IEDB peptide-MHC binding, purified MHC/direct/fluorescence; filed as Kd, often an IC50 or EC50 that approximates it; bounds were set here for any values at or beyond the usual limits of such assays
# test.parameters: source organism: Pasteurella multocida
readout.label: pKd
Conceptually, pKd converts a concentration in mol/L into minus its log10.

Record `LMAEDLANV` ; system HLA-A*24:03; pKd = 4.94

* * *

Kd values for the sequences below.
# subject.of.test: HLA-A*30:01
# test: IEDB peptide-MHC binding, purified MHC/competitive/radioactivity; filed as Kd, often an IC50 or EC50 that approximates it; bounds were set here for any values at or beyond the usual limits of such assays
# test.parameters: source organism: Mammarenavirus guanaritoense

Some entries whose results are on file:
• GTDPYRPSF = ≥ 30.3 µM
• EFSRSILWDY = 1.4 µM

Next up:
Looking up `DLMSMSDGEF` , I see its Kd listed as ≥ 70.4 µM

* * *

# subject.of.test: HLA-A*68:02
# test: IEDB peptide-MHC binding, purified MHC/direct/fluorescence; filed as Kd, often an IC50 or EC50 that approximates it; bounds were set here for any values at or beyond the usual limits of such assays
# test.parameters: source organism: Zaire ebolavirus
pKd: −log10 of the molar value.
readout.label: pKd

• LESLTDREL = ≤ 4.70

Next up:
Looking up `ILNRKAIDF` , I see its pKd listed as ≤ 4.70

* * *

# subject.of.test: HLA-A*02:11
# test: IEDB peptide-MHC binding, purified MHC/competitive/fluorescence; filed as Kd, often an IC50 or EC50 that approximates it; bounds were set here for any values at or beyond the usual limits of such assays
# test.parameters: source organism: Giardia lamblia ATCC 50803
pKd: −log10 of the molar value.
pKd values for the sequences below.

Looking up `ISKANWMTY` , I see its pKd listed as ≤ 4.70

Looking up `AILAGEHKC` , I see its pKd listed as ≤ 4.70

* * *

# subject.of.test: HLA-B*57:01
# test: IEDB peptide-MHC binding, purified MHC/competitive/radioactivity; filed as Kd, often an IC50 or EC50 that approximates it; bounds were set here for any values at or beyond the usual limits of such assays
# test.parameters: source organism: Murray valley encephalitis virus (strain MVE-1-51)
readout.label: pKd
Conceptually, pKd converts a concentration in mol/L into minus its log10.

Looking up `LGFLNEDHW` , I see its pKd listed as 6.76

* * *

# subject.of.test: HLA-A*32:01
# test: IEDB peptide-MHC binding, purified MHC/competitive/radioactivity; filed as Kd, often an IC50 or EC50 that approximates it; bounds were set here for any values at or beyond the usual limits of such assays
# test.parameters: source organism: Dengue virus 1 Brazil/97-11/1997
pKd: −log10 of the molar value.
readout.label: pKd

Some entries whose results are on file:
* IHAHHQWMTT | ≤ 4.57
* KSWLVHKQW | 7.77
* GLLFMILTV | ≤ 4.11

Next up:
Looking up `GTAKLRWFVE` , I see its pKd listed as ≤ 4.68

* * *

# subject.of.test: HLA-A*02:03
# test: IEDB peptide-MHC binding, purified MHC/direct/fluorescence; filed as Kd, often an IC50 or EC50 that approximates it; bounds were set here for any values at or beyond the usual limits of such assays
# test.parameters: source organism: Pergamino virus
readout.label: Kd

Looking up `SCINGQCPY` , I see its Kd listed as ≥ 20 µM

* * *

# subject.of.test: HLA-B*15:03
# test: IEDB peptide-MHC binding, purified MHC/competitive/radioactivity; filed as Kd, often an IC50 or EC50 that approximates it; bounds were set here for any values at or beyond the usual limits of such assays
# test.parameters: source organism: Vaccinia virus Copenhagen
pKd values for the sequences below.
Conceptually, pKd converts a concentration in mol/L into minus its log10.

- LKSNADWFF: 7.99
- SLNSIFNTF: 6.68

Next up:
Looking up `IQYDRRSFF` , I see its pKd listed as 9.81

* * *

# subject.of.test: HLA-B*07:02
# test: IEDB peptide-MHC binding, purified MHC/competitive/fluorescence; filed as Kd, often an IC50 or EC50 that approximates it; bounds were set here for any values at or beyond the usual limits of such assays
# test.parameters: source organism: Vibrio cholerae 2740-80
readout.label: Kd

Looking up `MGMEQTMSV` , I see its Kd listed as ≥ 5 µM

* * *

# subject.of.test: HLA-A*02:07
# test: IEDB peptide-MHC binding, purified MHC/competitive/radioactivity; filed as Kd, often an IC50 or EC50 that approximates it; bounds were set here for any values at or beyond the usual limits of such assays
# test.parameters: source organism: Homo sapiens
readout.label: Kd

Looking up `KMKEIAEAY` , I see its Kd listed as ≥ 53.4 µM

* * *

# subject.of.test: HLA-A*02:03
# test: IEDB peptide-MHC binding, purified MHC/competitive/fluorescence; filed as Kd, often an IC50 or EC50 that approximates it; bounds were set here for any values at or beyond the usual limits of such assays
# test.parameters: source organism: Vibrio vulnificus
pKd: −log10 of the molar value.
readout.label: pKd

Looking up `DEWECTRDD` , I see its pKd listed as ≤ 4.70

* * *

# subject.of.test: HLA-A*02:01
# test: IEDB peptide-MHC binding, purified MHC/direct/fluorescence; filed as Kd, often an IC50 or EC50 that approximates it; bounds were set here for any values at or beyond the usual limits of such assays
# test.parameters: source organism: Vaccinia virus Copenhagen
readout.label: Kd (nM)
# output: bare number, implied unit nM

Looking up `DLGPAFTEL` , I see its Kd listed as 219

* * *

# subject.of.test: HLA-B*51:01
# test: IEDB peptide-MHC binding, purified MHC/direct/fluorescence; filed as Kd, often an IC50 or EC50 that approximates it; bounds were set here for any values at or beyond the usual limits of such assays
# test.parameters: source organism: Mycobacterium tuberculosis
pKd: −log10 of the molar value.
readout.label: pKd

• YPACEAIGL = ≤ 4.70

Looking up `RPAPATGAL` , I see its pKd listed as ≤ 4.70

* * *

# subject.of.test: HLA-A*02:01
# test: IEDB peptide-MHC binding, purified MHC/direct/fluorescence; filed as Kd, often an IC50 or EC50 that approximates it; bounds were set here for any values at or beyond the usual limits of such assays
# test.parameters: source organism: Escherichia coli O157:H7
readout.label: Kd

* VVPLYDTPL | ≥ 20 µM

Next up:
Record `VSRDFDDVY` ; system HLA-A*02:01; Kd = ≥ 20 µM
